Cited source: the RNAGym collection of RNA variant scans (doi:10.1126/science.aae0568)

B1: tRNA (parent)
chain: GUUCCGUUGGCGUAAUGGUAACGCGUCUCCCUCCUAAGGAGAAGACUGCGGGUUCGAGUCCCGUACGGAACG

Variants of: B1
Experiment: yeast fitness relative to wild type (ratio to wild type); higher = fitter; tRNA-Arg(CCU), competitive growth, 37 C, YPD
This sample holds only a part of the variants without activity.
propertyName: yeast fitness
Write no unit; give the number alone.

Ask | Returns the measured yeast fitness for the input variant. Input: C22A A37U
Reply | 0.578

Ask | Give the measured yeast fitness of C31A C60G .
Reply | 0.516

Ask | Param item = C24G A43G ; retrieve measured yeast fitness.
Reply | 0.573

Ask | GET /values?readout=yeast fitness&item= C30A G63C
Reply | 0.774

Ask | Look up yeast fitness: C22U C29U
Reply | 0.821

Ask | Entry C5U G6A A40C C46A has what yeast fitness?
Reply | 0.578

Ask | Find the recorded yeast fitness belonging to U32A C33U G52A and report it.
Reply | 0.597

Ask | GET /values?readout=yeast fitness&item= C11G A14U C34A
Reply | 0.528

Ask | Param item = A15C A36C G48A ; retrieve measured yeast fitness.
Reply | 0.516

Ask | Given the variant G17C C29G A65C , what is its reported yeast fitness?
Reply | 0.629

Ask | Find the recorded yeast fitness belonging to C4G G6A and report it.
Reply | 0.977

Ask | Reported yeast fitness for A40C C60A : what is it?
Reply | 0.654

Ask | Consider the variant shown here: G12A G17C What is its recorded yeast fitness?
Reply | 0.661

Ask | Recorded yeast fitness for A45C G50A A65U , please?
Reply | 0.643

Ask | Bench note: what yeast fitness did U2C U16A G67C show?
Reply | 0.644

Ask | # query: yeast fitness of entry C27G C30G C49U C60U G63C
Reply | 0.678

Ask | I would be grateful if you could share the reported yeast fitness for A14G C27G C34G A37U .
Reply | 0.61

Ask | Item C11U U13A G48A has what recorded yeast fitness?
Reply | 0.59

Ask | // yeast fitness lookup, key: A40G C62U
Reply | 0.715

Ask | Please look up its yeast fitness: C31G A45G U47A
Reply | 0.893

Ask | Name the reported yeast fitness value associated with the variant A21G U32C G51C C61A
Reply | 0.508

Ask | Name the recorded yeast fitness for C5U C61U A70G .
Reply | 0.609

Ask | Which yeast fitness value is on record for C24G A37G A43U C62G ?
Reply | 0.77

Ask | What does the record list as yeast fitness for C29G G41A ?
Reply | 0.723

Ask | What measured yeast fitness goes with U19A U26A C29A C46G U54A ?
Reply | 0.603

Ask | Any idea what yeast fitness was measured for C4G A21U C49G C66G G68C ?
Reply | 0.673
